Where these numbers come from: ChEMBL document CHEMBL3091455

Organism: Rattus norvegicus
Test: Effect on electron transport protein complex 1 in Wistar-Han rat liver mitochondria using glutamate/malate as substrate assessed as phosphorylative lag phase at 3 ug/mg relative to control
Binary classification by Activity, with 40% as an inclusive lower bound for condition met; all other cases are condition not met.

(Q) Given C=C(C)[C@@H]1CC[C@]2(CO)CC[C@]3(C)[C@H](CC[C@@H]4[C@@]5(C)CC[C@H](OC(=O)C[n+]6ccc(N(C)C)cc6)C(C)(C)[C@@H]5CC[C@]43C)[C@@H]12.[Cl-] , state whether its Activity is at least 40%.
(A) condition not met

(Q) Determine whether measured Activity meets or exceeds 40% for C=C(C[n+]1ccc(N(C)C)cc1)[C@@H]1CC[C@]2(COC(=O)C[n+]3ccc(N(C)C)cc3)CC[C@]3(C)[C@H](CC[C@@H]4[C@@]5(C)CC[C@H](OC(=O)C[n+]6ccc(N(C)C)cc6)C(C)(C)[C@@H]5CC[C@]43C)[C@@H]12.[Br-].[Br-].[Br-]
(A) condition met

(Q) Identify whether the reported Activity of the following molecule is 40% or greater: C=C(C[n+]1ccc(N(C)C)cc1)[C@@H]1CC[C@]2(C(=O)O)CC[C@]3(C)[C@H](CC[C@@H]4[C@@]5(C)CC[C@H](O)C(C)(C)[C@@H]5CC[C@]43C)[C@@H]12.[Br-]
(A) condition met

(Q) Can C=C(C)[C@@H]1CC[C@]2(COC(=O)C[n+]3ccc(N(C)C)cc3)CC[C@]3(C)[C@H](CC[C@@H]4[C@@]5(C)CC[C@H](OC(=O)C[n+]6ccc(N(C)C)cc6)C(C)(C)[C@@H]5CC[C@]43C)[C@@H]12.[Br-].[Br-] be said to have Activity at or above 40%?
(A) condition not met

(Q) I'd appreciate it if you could say whether C=C(C)[C@@H]1CC[C@]2(COC(=O)C[n+]3ccc(N(C)C)cc3)CC[C@]3(C)[C@H](CC[C@@H]4[C@@]5(C)CC[C@H](O)C(C)(C)[C@@H]5CC[C@]43C)[C@@H]12 has Activity at least equal to 40%.
(A) condition not met

----------
Species on record: Rattus norvegicus
Assay: Inhibition of electron transport protein complex 1/2 in Wistar-Han rat liver mitochondria using glutamate/malate and succinate as substrate assessed as increase of state 3 and 4 mitochondrial oxygen consumption at 3 to 6 ug/mg
The source made the active and inactive calls. The calls are words filed in the database; no cut-off is given here.
Answer with one of the outcomes given here: t (active), f (inactive)

(Q) Called result for C=C(C)[C@@H]1CC[C@]2(CO)CC[C@]3(C)[C@H](CC[C@@H]4[C@@]5(C)CC[C@H](OC(=O)C[n+]6ccc(N(C)C)cc6)C(C)(C)[C@@H]5CC[C@]43C)[C@@H]12.[Cl-]
(A) f

(Q) Per the records of this test, what outcome belongs to C=C(C)[C@@H]1CC[C@]2(COC(=O)C[n+]3ccc(N(C)C)cc3)CC[C@]3(C)[C@H](CC[C@@H]4[C@@]5(C)CC[C@H](O)C(C)(C)[C@@H]5CC[C@]43C)[C@@H]12 ?
(A) t

(Q) # fetch the recorded call for C=C(C[n+]1ccc(N(C)C)cc1)[C@@H]1CC[C@]2(C(=O)O)CC[C@]3(C)[C@H](CC[C@@H]4[C@@]5(C)CC[C@H](O)C(C)(C)[C@@H]5CC[C@]43C)[C@@H]12.[Br-] here
(A) f

(Q) Please state the recorded outcome for this molecule: C=C(C[n+]1ccc(N(C)C)cc1)[C@@H]1CC[C@]2(COC(=O)C[n+]3ccc(N(C)C)cc3)CC[C@]3(C)[C@H](CC[C@@H]4[C@@]5(C)CC[C@H](OC(=O)C[n+]6ccc(N(C)C)cc6)C(C)(C)[C@@H]5CC[C@]43C)[C@@H]12.[Br-].[Br-].[Br-]
(A) f
